Data credit: patent US20090022659A1

assayTarget: T1, Tumor Necrosis Factor-alpha (TNF-α), R&D systems 210-TA / 210-TA-CF (human, UniProt P01375 77-233)
T1 construct: Bought protein; also called huTNF-α
T1 sequence (P01375 77-233 limits assumed): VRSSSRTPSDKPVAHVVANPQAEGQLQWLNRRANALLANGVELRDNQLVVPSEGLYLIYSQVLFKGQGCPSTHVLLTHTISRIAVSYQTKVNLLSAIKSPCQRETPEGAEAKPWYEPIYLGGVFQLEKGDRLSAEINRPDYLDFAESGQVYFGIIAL
protocolNotes: biolayer interferometry (Octet QK); biotinylated TNF-α on streptavidin sensor, antibody 8 nM to 1 nM
pKd: −log10 of the molar value.
Each entry below lists one item and its recorded pKd value.

[
  {
    "binder": "anti-TNF-α antibody Ab2 (antibody, V domains shown) VH: QSVEESGGRLVTPGTPLTLTCSVSGFSLNNYVMGWVRQAPGKGLEFIGYIAFGIGPYYASWAKGRFTISSTSSTTVDLKMTSLTPEDTATYFCARGDYSGNDI VL: ADIVMTQTPSSVSEPVRGTVTIKCQASQNIYSYLSWYQQSPGQPPKLLIYKASTLASGVPSRFKGSGSGTDFTLTISDLECADAATYYCQSNYGSDSDSFGNA",
    "pKd": 11.00
  },
  {
    "binder": "anti-TNF-α antibody Ab11 (antibody, V domains shown) VH: QSVEESGGRLVTPGTPLTLTCTVSGFSLSIYWMTWVRQAPGKGLEWIGVIASDGSTYYASWAKGRFTISKASSTTVDLKIASPTIEDTATYFCAGGGGMDP VL: AQVMTQTPASVSAAVGGTVTISCQSSESVYNNNDLIWFRQKPGQPPKRLIYWASQLASGVSSRFKGSGSGTQFTLTINDLECDDAATYYCAGAYDSEIRA",
    "pKd": 10.70
  },
  {
    "binder": "anti-TNF-α antibody Ab17 (antibody, V domains shown) VH: QSLEESGGRLVTPGGSLTLTCTVSGIDLSSYAMGWVRQAPGKGLEYIGYVLGSGITYYASWARGRFTISKTSSTTVDLKMTSLTTEDTATYFCVRNDNYNSGTDI VL: ADIVMTQTPASVSEPVGGTVTIKCQASQSIYSTLAWYQQKPGQPPKLLISLASTLASGVPSRFKGSGSGTQFTLTISDLECADAATYYCQTNHGSNSDSFGYA",
    "pKd": 11.00
  },
  {
    "binder": "anti-TNF-α antibody Ab19 (antibody, V domains shown) VH: QSVEESGGRLVTPGTPLTLTCSVSGFSLNNYIMGWVRQAPGKGLEFIGYIAFGIGPYYASWAKGRFTSSSTSSTTVDLKMTSLTPEDTATYFCARGDVSGNDI VL: ADIVMTQTPSSVSEPVRGTVTIKCQASQNIYSYLSWYRQSPGQPPNLLIYKASTLASGVPSRFKGSGSGTDFTLTISDLECADAATYYCQSNYGSNSDSFGNA",
    "pKd": 10.22
  }
]
